target: Wnt-responsive promoter (TCF/LEF); experiment: Wnt-dependent luciferase reporter assay
pEC50: −log10 of the molar value. Where a SMILES comes first, the peptide text is derived from it.
Observable: pEC50

Consider the worked cases shown below.
CC[C@H](C)[C@H](NC(=O)[C@H](CC(C)C)NC(=O)[C@H](Cc1ccccc1)NC(=O)[C@H](Cc1c[nH]c2ccccc12)NC(=O)[C@H](CCSC)NC(=O)[C@H](CCCNC(=N)N)NC(=O)[C@H](CO)NC(=O)[C@@H](N)Cc1c[nH]cn1)C(=O)N[C@@H](CO)C(=O)N[C@@H](Cc1ccccc1)C(=O)N[C@@H](Cc1c[nH]c2ccccc12)C(N)=O [compound 89] (H-HSRMWFLISFW-NH2) : < 4.52
CC[C@H](C)[C@H](NC(=O)[C@H](CC(C)C)NC(=O)[C@H](Cc1ccc(O)cc1)NC(=O)[C@H](Cc1c[nH]c2ccccc12)NC(=O)[C@H](CCSC)NC(=O)[C@H](CCCNC(=N)N)NC(=O)[C@H](CO)NC(=O)[C@@H](N)CCSC)C(=O)N[C@@H](CO)C(=O)N[C@@H](Cc1ccccc1)C(=O)N[C@@H](Cc1c[nH]c2ccccc12)C(=O)NCC(=O)O [compound 66] (H-MSRMWYLISFWG-OH) : 4.82 to 5.12
CC[C@H](C)[C@H](NC(=O)[C@H](CO)NC(=O)[C@H](CCC(=O)O)NC(=O)[C@H](Cc1c[nH]c2ccccc12)NC(=O)[C@@H](N)CCSC)C(=O)N[C@@H](CC(C)C)C(=O)N[C@@H](CC(=O)O)C(=O)N[C@@H](CCC(=O)O)C(=O)N[C@@H](Cc1c[nH]cn1)C(=O)N[C@@H](CCSC)C(=O)N[C@@H](CCC(N)=O)C(=O)N[C@@H](CCCNC(=N)N)C(=O)N[C@H](C(=O)N[C@@H](Cc1c[nH]c2ccccc12)C(=O)N[C@@H](CCCNC(=N)N)C(=O)NCC(=O)O)C(C)C [compound 23] (H-MWESILDEHMQRVWRG-OH) : < 4.52
CC[C@H](C)[C@@H]1NC(=O)[C@H](CC(C)C)NC(=O)[C@H](Cc2ccccc2)NC(=O)[C@H](Cc2c[nH]c3ccccc23)NC(=O)[C@@H](N)CCCCNC(=O)C[C@@H](C(=O)O)NC(=O)[C@H](Cc2c[nH]c3ccccc23)NC(=O)[C@H](C)NC(=O)[C@H](CS)NC1=O [compound 168] (HELM PEPTIDE1{K.W.F.L.I.C.A.W.D}$PEPTIDE1,PEPTIDE1,1:R3-9:R3$$$V2.0) : > 5.12
CC[C@H](C)[C@@H]1NC(=O)[C@H](CC(C)C)NC(=O)[C@H](Cc2ccccc2)NC(=O)[C@H](Cc2c[nH]c3ccccc23)NC(=O)[C@@H](N)CCCCNC(=O)CC[C@@H](C(=O)N[C@@H](Cc2c[nH]c3ccccc23)C(=O)NCC(=O)O)NC(=O)[C@H](CS)NC1=O [compound 173] (HELM PEPTIDE1{K.W.F.L.I.C.E.W.G}$PEPTIDE1,PEPTIDE1,1:R3-7:R3$$$V2.0) : < 4.52
CSCC[C@H](NC(=O)[C@H](CCCNC(=N)N)NC(=O)[C@H](CO)NC(=O)[C@@H](N)CCSC)C(=O)N[C@@H](Cc1c[nH]c2ccccc12)C(=O)N[C@@H](Cc1ccccc1)C(=O)N[C@@H](CC(C)C)C(=O)N[C@H](C(=O)N[C@@H](CO)C(=O)N[C@@H](Cc1ccccc1)C(=O)N[C@@H](Cc1c[nH]c2ccccc12)C(=O)NCC(=O)O)C(C)C [compound 56] (H-MSRMWFLVSFWG-OH) : 4.82 to 5.12
CC[C@H](C)[C@H](NC(=O)[C@H](CC(C)C)NC(=O)[C@H](Cc1ccccc1)NC(=O)[C@H](Cc1c[nH]c2ccccc12)NC(C)=O)C(=O)N[C@@H](CO)C(=O)N[C@@H](Cc1ccccc1)C(=O)N[C@@H](Cc1c[nH]c2ccccc12)C(=O)NCC(=O)O [compound 220] (Ac-WFLISFWG-OH) : > 5.12
CC[C@H](C)[C@H](NC(=O)[C@H](CC(C)C)NC(=O)[C@H](Cc1ccccc1)NC(=O)[C@H](Cc1c[nH]c2ccccc12)NC(=O)[C@H](CCSC)NC(=O)[C@H](CCCNC(=N)N)NC(=O)[C@H](CO)NC(=O)[C@@H](N)CCSC)C(=O)N[C@@H](CO)C(=O)N[C@@H](Cc1ccccc1)C(=O)N[C@@H](Cc1c[nH]c2ccccc12)C(=O)N[C@@H](CCCNC(=N)N)C(=O)NCC(=O)O [compound 58] (H-MSRMWFLISFWRG-OH) : 4.52 to 4.65
CC[C@H](C)[C@H](NC(=O)[C@H](CC(C)C)NC(=O)[C@H](Cc1ccccc1)NC(=O)[C@H](Cc1c[nH]c2ccccc12)NC(=O)[C@H](CCSC)NC(=O)[C@H](CCCNC(=N)N)NC(=O)[C@@H](NC(=O)[C@@H](N)CCSC)[C@@H](C)CC)C(=O)N[C@@H](CO)C(=O)N[C@@H](Cc1ccccc1)C(=O)N[C@@H](Cc1c[nH]c2ccccc12)C(=O)NCC(=O)O [compound 15] (H-MIRMWFLISFWG-OH) : > 5.12

# ---- query molecule ----
Recorded pEC50 of CC[C@H](C)[C@H](NC(=O)[C@H](CC(C)C)NC(=O)[C@H](C)NC(=O)[C@H](Cc1c[nH]c2ccccc12)NC(=O)[C@@H](N)CCSC)C(=O)N[C@@H](CO)C(=O)N[C@@H](Cc1ccccc1)C(=O)N[C@@H](Cc1c[nH]c2ccccc12)C(=O)NCC(=O)O [compound 156] (H-MWALISFWG-OH) , please. > 5.12

The measurements presented in this section are drawn from patent US12441768B2.
